ASSAY_DETAILS: Rat toxicology, NOAEL
COND: male, in vivo, (male) rat, germ cell exfoliation in epididymis and testes, read-out: NOAEL (no observed adverse effect level)
ENDPOINT_LABEL: NOAEL (mg/kg)

COMPOUND	MEASURED
CC1(C)CC(n2nnc3cc(-c4ccc(-n5nccn5)cc4O)nnc32)CC(C)(C)N1 [Compound 1]	6

###

Entries annotated with measured Kp uu
ASSAY_DETAILS: Unbound brain partition coefficient (Kp,uu) from mouse PK studies
Format: in vivo
COND: FVB (WT littermates of the BACHD colony), brain and plasma (unbound), oral, 10 mg/kg, average over animals of multiple mouse PK studies

MOLECULE	Kp uu
CC1(C)CC(Oc2ccc(-c3ccc(-c4cn[nH]c4)cc3O)nn2)CC(C)(C)N1	0.179
CCN1CCC(c2cc(C)c3nc(-c4ccc5nn(C)cc5c4)cc(=O)n3c2)CC1 [HTT-D1]	0.242
CCN1CCC(c2cc3c(F)cc(-c4cc(C)c5nc(C)cn5n4)cc3nn2)CC1	0.472
CC1(C)CC(Oc2ccc(-c3ccc(-c4ccnc(O)c4)cc3O)nn2)CC(C)(C)N1	0.084
CC1(C)CC(n2nnc3cc(-c4ccc(-n5nccn5)cc4O)nnc32)CC(C)(C)N1	0.848
